# METHOD_SUMMARY: BTK FAC plasma stability assay, rat plasma
# Assay type: in vitro ADME
# CONDITION_DESCRIPTION: 24 h
READOUT_KIND: % Release of degrader after 24 h rat
Kindly format the answer as number then unit.

MOLECULE	% Release of degrader after 24 h rat
CCCCCCCCCCCN(C(=O)CCCCCCCCCC(=O)O)C(CCC(=O)NCCOCCOCCOCCOCCOCCOCCOCCOCCOCCOCCOCCOCCC(=O)NC(C)(C)CC(=O)OC(C)(C)c1ccc(C(=O)Nc2cc(F)cc(-c3ncnc4[nH]c(-c5ccc(CCN6CCC7(CC6)CCN(C(=O)c6ccc(OC)c(N8CCC(=O)NC8=O)c6)CC7)cc5)cc34)c2C)c(F)c1)C(=O)O (stereo not drawn) [Example A18]	0.2%
CCCCCCCCCCCN(C(=O)CCCCCCCCCC(=O)O)C(CCC(=O)NCCOCCOCCOCCOCCOCCOCCOCCOCCOCCOCCOCCOCCC(=O)NCc1ccc(C(=O)OC(C)(C)c2ccc(C(=O)Nc3cc(F)cc(-c4ncnc5[nH]c(-c6ccc(CCN7CCC8(CC7)CCN(C(=O)c7ccc(OC)c(N9CCC(=O)NC9=O)c7)CC8)cc6)cc45)c3C)c(F)c2)cc1)C(=O)O (stereo not drawn) [Example A14]	0.3%

Consider now this further molecule.
Lookup: Give the measured % Release of degrader after 24 h rat of CCCCCCCCCCCN(C(=O)CCCCCCCCCC(=O)O)[C@@H](CCC(=O)NCCOCCOCCOCCOCCOCCOCCOCCOCCOCCOCCOCCOCCC(=O)NCC(=O)OC(C)(C)c1ccc(C(=O)Nc2cc(F)cc(-c3ncnc4[nH]c(-c5ccc(CCN6CCC7(CC6)CCN(C(=O)c6ccc(OC)c(N8CCC(=O)NC8=O)c6)CC7)cc5)cc34)c2C)c(F)c1)C(=O)O [Example A2] .
Found: 8.9%

====

# METHOD_SUMMARY: In vivo pharmacokinetic study in rats (i.v. or s.c.), FAC and payload in blood
# Parameters: species or system rat
# CONDITION_DESCRIPTION: male, Sprague-Dawley, rat, whole blood, iv, 1 umol/kg, API i.v., species taken as rat; listed as note (1 umol/kg); read-out: Payload AUC-uM.h (unconjugated degrader dosed, second payload cell)
READOUT_KIND: AUC

Lookup: I have this compound here, COc1ccc(C(=O)N2CCC3(CCN(CCc4ccc(-c5cc6c(-c7cc(F)cc(NC(=O)c8ccc(C(C)(C)O)cc8F)c7C)ncnc6[nH]5)cc4)CC3)CC2)cc1N1CCC(=O)NC1=O [Compound V] , and I need its recorded AUC.
Found: 570 nM·h

====

Please respond with reported % Release of degrader after 24 h mouse for every item in the list.
# METHOD_SUMMARY: BTK FAC plasma stability assay, mouse plasma
# Format: in vitro ADME
# CONDITION_DESCRIPTION: 24 h
Give bare numbers, in %.

COMPOUND	RESULT_UNITS	% Release of degrader after 24 h mouse
CCCCCCCCCCCN(C(=O)CCCCCCCCCC(=O)O)C(CCC(=O)NCCOCCOCCOCCOCCOCCOCCOCCOCCOCCOCCOCCOCCC(=O)N1CCC[C@H]1CC(=O)OC(C)(C)c1ccc(C(=O)Nc2cc(F)cc(-c3ncnc4[nH]c(-c5ccc(CCN6CCC7(CC6)CCN(C(=O)c6ccc(OC)c(N8CCC(=O)NC8=O)c6)CC7)cc5)cc34)c2C)c(F)c1)C(=O)O (stereo partly drawn)	%	0.5

Hi team, please reply with % Release of degrader after 24 h mouse for each item in this list.
1. CCCCCCCCCCCN(C(=O)CCCCCCCCCC(=O)O)C(CCC(=O)NCCOCCOCCOCCOCCOCCOCCOCCOCCOCCOCCOCCOCCC(=O)NCCC(=O)OC(C)(C)c1ccc(C(=O)Nc2cc(F)cc(-c3ncnc4[nH]c(-c5ccc(CCN6CCC7(CC6)CCN(C(=O)c6ccc(OC)c(N8CCC(=O)NC8=O)c6)CC7)cc5)cc34)c2C)c(F)c1)C(=O)O (stereo not drawn)
2. CCCCCCCCCCCN(C(=O)CCCCCCCCCC(=O)O)C(CCC(=O)NCCOCCOCCOCCOCCOCCOCCOCCOCCOCCOCCOCCOCCC(=O)NCC(=O)NCN(C(=O)c1ccc(C(C)(C)O)cc1F)c1cc(F)cc(-c2ncnc3[nH]c(-c4ccc(CCN5CCC6(CC5)CCN(C(=O)c5ccc(OC)c(N7CCC(=O)NC7=O)c5)CC6)cc4)cc23)c1C)C(=O)O (stereo not drawn)
3. CCCCCCCCCCCN(C(=O)CCCCCCCCCC(=O)O)[C@@H](CCC(=O)NCCOCCOCCOCCOCCOCCOCCOCCOCCOCCOCCOCCOCCC(=O)NCCCC(=O)OC(C)(C)c1ccc(C(=O)Nc2cc(F)cc(-c3ncnc4[nH]c(-c5ccc(CCN6CCC7(CC6)CCN(C(=O)c6ccc(OC)c(N8CCC(=O)NC8=O)c6)CC7)cc5)cc34)c2C)c(F)c1)C(=O)O
4. CCCCCCCCCCCN(C(=O)CCCCCCCCCC(=O)O)C(CCC(=O)NCCOCCOCCOCCOCCOCCOCCOCCOCCOCCOCCOCCOCCC(=O)N[C@@H](C)C(=O)OC(C)(C)c1ccc(C(=O)Nc2cc(F)cc(-c3ncnc4[nH]c(-c5ccc(CCN6CCC7(CC6)CCN(C(=O)c6ccc(OC)c(N8CCC(=O)NC8=O)c6)CC7)cc5)cc34)c2C)c(F)c1)C(=O)O (stereo partly drawn)
5. CCCCCCCCCCCN(C(=O)CCCCCCCCCC(=O)O)C(CCC(=O)NCCOCCOCCOCCOCCOCCOCCOCCOCCOCCOCCOCCOCCC(=O)NCC(=O)OC(C)(C)c1ccc(C(=O)Nc2cc(F)cc(-c3ncnc4[nH]c(-c5ccc(CCN6CCC7(CC6)CCN(C(=O)c6ccc(OC)c(N8CCC(=O)NC8=O)c6)CC7)cc5)cc34)c2C)c(F)c1)C(=O)O (stereo not drawn)

Found:
1. 14.2
2. 0.7
3. 13.7
4. 1.9
5. 15.1

Each compound below has a recorded value; state its % Release of degrader after 24 h mouse.
1. CCCCCCCCCCCN(C(=O)CCCCCCCCCC(=O)O)[C@@H](CCC(=O)NCCOCCOCCOCCOCCOCCOCCOCCOCCOCCOCCOCCOCCC(=O)N(CCC(=O)OC(C)(C)c1ccc(C(=O)Nc2cc(F)cc(-c3ncnc4[nH]c(-c5ccc(CCN6CCC7(CC6)CCN(C(=O)c6ccc(OC)c(N8CCC(=O)NC8=O)c6)CC7)cc5)cc34)c2C)c(F)c1)CC(=O)O)C(=O)O
2. CCCCCCCCCCCN(C(=O)CCCCCCCCCC(=O)O)C(CCC(=O)NCCOCCOCCOCCOCCOCCOCCOCCOCCOCCOCCOCCOCCC(=O)N(CC)CC(=O)OC(C)(C)c1ccc(C(=O)Nc2cc(F)cc(-c3ncnc4[nH]c(-c5ccc(CCN6CCC7(CC6)CCN(C(=O)c6ccc(OC)c(N8CCC(=O)NC8=O)c6)CC7)cc5)cc34)c2C)c(F)c1)C(=O)O (stereo not drawn)

Found:
1. 7.4
2. 3.7

Below are some compounds; for each one, tell me its % Release of degrader after 24 h mouse.
1. CCCCCCCCCCCN(C(=O)CCCCCCCCCC(=O)O)[C@@H](CCC(=O)NCCOCCOCCOCCOCCOCCOCCOCCOCCOCCOCCOCCOCCC(=O)NCC(=O)OC(C)(C)c1ccc(C(=O)Nc2cc(F)cc(-c3ncnc4[nH]c(-c5ccc(CCN6CCC7(CC6)CCN(C(=O)c6ccc(OC)c(N8CCC(=O)NC8=O)c6)CC7)cc5)cc34)c2C)c(F)c1)C(=O)O
2. CCCCCCCCCCCN(C(=O)CCCCCCCCCC(=O)O)C(CCC(=O)NCCOCCOCCOCCOCCOCCOCCOCCOCCOCCOCCOCCOCCC(=O)NCCOP(=O)(O)OC(C)(C)c1ccc(C(=O)Nc2cc(F)cc(-c3ncnc4[nH]c(-c5ccc(CCN6CCC7(CC6)CCN(C(=O)c6ccc(OC)c(N8CCC(=O)NC8=O)c6)CC7)cc5)cc34)c2C)c(F)c1)C(=O)O (stereo not drawn)
3. CCCCCCCCCCCN(C(=O)CCCCCCCCCC(=O)O)C(CCC(=O)NCCOCCOCCOCCOCCOCCOCCOCCOCCOCCOCCOCCOCCOCCOCCOCCOCCC(=O)NCC(=O)OC(C)(C)c1ccc(C(=O)Nc2cc(F)cc(-c3ncnc4[nH]c(-c5ccc(CCN6CCC7(CC6)CCN(C(=O)c6ccc(OC)c(N8CCC(=O)NC8=O)c6)CC7)cc5)cc34)c2C)c(F)c1)C(=O)O (stereo not drawn)
4. CCCCCCCCCCCN(C(=O)CCCCCCCCCC(=O)O)[C@H](CCC(=O)NCCOCCOCCOCCOCCOCCOCCOCCOCCOCCOCCOCCOCCC(=O)NCC(=O)OC(C)(C)c1ccc(C(=O)Nc2cc(F)cc(-c3ncnc4[nH]c(-c5ccc(CCN6CCC7(CC6)CCN(C(=O)c6ccc(OC)c(N8CCC(=O)NC8=O)c6)CC7)cc5)cc34)c2C)c(F)c1)C(=O)O

Found:
[3.4, 0, 15.6, 5.2]
